Origin of values: patent US20050261331A1

Biological target: recombinant human Itk kinase domain fused with GST (Homo sapiens)
Construct: recombinant human Itk kinase domain fused with GST; made in house; host or cells: High Five insect cells
Sequence (Q08881 363-615 limits assumed): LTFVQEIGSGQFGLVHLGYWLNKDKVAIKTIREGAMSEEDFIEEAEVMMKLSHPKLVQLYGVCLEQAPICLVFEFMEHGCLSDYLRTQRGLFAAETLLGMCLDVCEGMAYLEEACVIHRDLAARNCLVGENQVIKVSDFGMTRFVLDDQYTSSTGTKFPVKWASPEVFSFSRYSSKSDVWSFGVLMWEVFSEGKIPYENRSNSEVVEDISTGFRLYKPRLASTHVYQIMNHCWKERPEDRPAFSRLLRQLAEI
Assay: Itk LANCE TRF Assay
Format: biochemical
Settings: 160 ng/well Itk, 2 μM peptide substrate, 50 μM ATP, 50 minutes RT; read-out: Inhibition of Kinase Itk (IC50 μM)
Counter-ions that a name gives are not always drawn.
observedProperty: IC50 (µM)

1) N#Cc1cnc2[nH]c(-c3ccccc3)c(-c3ccc(N4CCOCC4)cc3)c2c1 [Example 44]: 0.44

P: CN(C)CCCOc1ccc(-c2c(-c3ccco3)[nH]c3ncc(Br)cc23)cc1 [Example 5]
Q: CN(C)CCCN(C)c1ccc(-c2[nH]c3ncc(Cl)cc3c2-c2cncnc2)cn1 [Example 61, trihydrochloride]
Q: Kindly identify the item with the lower IC50 figure among these two: P and Q Mark your answer with the label of the selected entry.
Ans: P

a: CC(=O)NCc1ccc(-c2c(-c3ccccc3)[nH]c3ncc(Br)cc23)o1 [Example 13]
b: Cc1c(Br)cnc2[nH]c(-c3ccc(OCCCN(C)C)cc3)c(-c3cccnc3)c12 [Example 55]
Q: Between the entries labelled a and b , which has a larger IC50 value on record? Mark your answer with the label of the selected entry.
Ans: a
